Readout Type: melting point

Molecule	Data Value
CS(=O)(=O)c1ccc(-c2cnn(-c3ccc(Cl)cc3F)c(=O)c2-c2ccc(F)cc2)cc1	250 to 260 °C
COc1cc(-c2nc3ccc(OCCCN(C)C)cc3n2Cc2ccccc2Br)cc(OC)c1OC	141 °C
CCCCC/C(=C\C=C\C(=O)O)c1ccc(OC)cc1	86.5 to 87.5 °C
Cn1ccnc1Sc1c(Cl)cccc1Cl	113 to 115 °C

For every item in the list below, what is its measured melting point?
1. CC(C)C(=O)c1cnc(C(CC2CCCC2)c2ccc(S(C)(=O)=O)cc2)[nH]1 (centres undefined)
2. O=C(C1CCN(c2ccncc2)CC1)N1CCCN(S(=O)(=O)c2ccc3ccccc3c2)CC1

171 to 172 °C
178 to 180 °C
